Taken from ChEMBL document CHEMBL3046232.

// reported Activity per item
Tested on: Mus musculus
Experiment: Analgesic activity in Mus musculus Swiss albino (mouse) assessed as increase in reaction time of paw licking or jump response at 50 mg/kg, po after 60 min by hot plate method
Assay type: functional

Short answer for "O=C1c2ccccc2-c2noc(-c3ccc([N+](=O)[O-])cc3)c21" : Activity was 5.91%

Short answer for "O=C1c2ccccc2-c2noc(-c3ccc(Cl)cc3)c21" : Activity was 12.8%

Short answer for "COc1cc(-c2onc3c2C(=O)c2ccccc2-3)cc(OC)c1OC" : Activity was 9.75%

###

System: Bacillus subtilis
Experiment: Antimicrobial activity against at Bacillus subtilis at 100 ug/ml by cup plate method
Format: functional
Details: read-out: IZ
PROPERTY: zone of inhibition at 100 µg/mL (mm)
The reply should be a number in mm, with the unit left off.

Would you please look over these solved cases?
CC1(C)S[C@@H]2[C@H](NC(=O)[C@H](N)c3ccccc3)C(=O)N2[C@H]1C(=O)O 21.1
Cc1ccc(-c2onc3c2C(=O)c2ccccc2-3)cc1 15
O=C1c2ccccc2-c2noc(-c3ccc(O)cc3)c21 17.5
O=C1c2ccccc2-c2noc(-c3ccc(Cl)cc3)c21 18.5
COc1ccc(-c2onc3c2C(=O)c2ccccc2-3)cc1OC 19.7

Short answer for "COc1cc(-c2onc3c2C(=O)c2ccccc2-3)cc(OC)c1OC" : zone of inhibition at 100 µg/mL was 18.8

Short answer for "CN(C)c1ccc(-c2onc3c2C(=O)c2ccccc2-3)cc1" : zone of inhibition at 100 µg/mL was 12

Short answer for "O=C1c2ccccc2-c2noc(-c3ccccc3[N+](=O)[O-])c21" : zone of inhibition at 100 µg/mL was 14.2

Short answer for "COc1cccc(-c2onc3c2C(=O)c2ccccc2-3)c1O" : zone of inhibition at 100 µg/mL was 16

Short answer for "O=C1c2ccccc2-c2noc(-c3cccc([N+](=O)[O-])c3)c21" : zone of inhibition at 100 µg/mL was 13.5

Short answer for "O=C1c2ccccc2-c2noc(-c3ccc([N+](=O)[O-])cc3)c21" : zone of inhibition at 100 µg/mL was 14.5

Short answer for "COc1ccc(-c2onc3c2C(=O)c2ccccc2-3)cc1" : zone of inhibition at 100 µg/mL was 14.8

Short answer for "O=C1c2ccccc2-c2noc(-c3ccccc3)c21" : zone of inhibition at 100 µg/mL was 16.3

###

// reported zone of inhibition at 100 µg/mL per item
Tested on: Penicillium chrysogenum
Test: Antimicrobial activity against at Penicillium chrysogenum at 100 ug/ml by cup-plate method
Format: functional
Settings: read-out: IZ
The reply should be a number in mm, with the unit left off.

Would you please look over these solved cases?
COMPOUND	TARGET OR TEST SYSTEM	zone of inhibition at 100 µg/mL (mm)
O=C1c2ccccc2-c2noc(-c3ccccc3)c21	Penicillium chrysogenum	19.5
COc1cc(-c2onc3c2C(=O)c2ccccc2-3)cc(OC)c1OC	Penicillium chrysogenum	19
O=C1c2ccccc2-c2noc(-c3ccccc3[N+](=O)[O-])c21	Penicillium chrysogenum	14.2
CN(C)c1ccc(-c2onc3c2C(=O)c2ccccc2-3)cc1	Penicillium chrysogenum	12.2
O=C1c2ccccc2-c2noc(-c3ccc(Cl)cc3)c21	Penicillium chrysogenum	12

Short answer for OC(Cn1cncn1)(Cn1cncn1)c1ccc(F)cc1F [FLUCONAZOLE] : zone of inhibition at 100 µg/mL was 21.2

###

// reported zone of inhibition at 50 µg/mL per item
Test system: Escherichia coli
Test: Antimicrobial activity against at Escherichia coli at 50 ug/ml by cup-plate method
Type: functional
Settings: read-out: IZ
The reply should be a number in mm, with the unit left off.

O=C1c2ccccc2-c2noc(-c3ccccc3)c21 16.9
O=C1c2ccccc2-c2noc(-c3ccc(O)cc3)c21 5.25
CC1(C)S[C@@H]2[C@H](NC(=O)[C@H](N)c3ccccc3)C(=O)N2[C@H]1C(=O)O 20.4
COc1cc(-c2onc3c2C(=O)c2ccccc2-3)cc(OC)c1OC 16.5
Cc1ccc(-c2onc3c2C(=O)c2ccccc2-3)cc1 15

Short answer for "O=C1c2ccccc2-c2noc(-c3ccc(Cl)cc3)c21" : zone of inhibition at 50 µg/mL was 6.75

###

Tested on: Penicillium chrysogenum
Test: Antimicrobial activity against at Penicillium chrysogenum at 100 ug/ml by cup-plate method
Assay type: functional
Conditions: read-out: IZ
PROPERTY: zone of inhibition at 100 µg/mL
Write the numeric value and append its unit.

Would you please look over these solved cases?
COc1ccc(-c2onc3c2C(=O)c2ccccc2-3)cc1 19.6 mm
COc1ccc(-c2onc3c2C(=O)c2ccccc2-3)cc1OC 13.8 mm
Cc1ccc(-c2onc3c2C(=O)c2ccccc2-3)cc1 15.5 mm
O=C1c2ccccc2-c2noc(-c3cccc([N+](=O)[O-])c3)c21 13.5 mm

Short answer for "COc1cccc(-c2onc3c2C(=O)c2ccccc2-3)c1O" : zone of inhibition at 100 µg/mL was 16.6 mm

Short answer for "O=C1c2ccccc2-c2noc(-c3ccc(O)cc3)c21" : zone of inhibition at 100 µg/mL was 14 mm

Short answer for "O=C1c2ccccc2-c2noc(-c3ccc([N+](=O)[O-])cc3)c21" : zone of inhibition at 100 µg/mL was 15 mm

###

System: Escherichia coli
Test: Antimicrobial activity against at Escherichia coli at 25 ug/ml by cup-plate method
Type: functional
Settings: read-out: IZ
PROPERTY: zone of inhibition at 25 µg/mL (mm)
The reply should be a number in mm, with the unit left off.

Would you please look over these solved cases?
COMPOUND	DISPLAY UNIT	zone of inhibition at 25 µg/mL
COc1ccc(-c2onc3c2C(=O)c2ccccc2-3)cc1	mm	5.5
O=C1c2ccccc2-c2noc(-c3ccccc3)c21	mm	9.79
Cc1ccc(-c2onc3c2C(=O)c2ccccc2-3)cc1	mm	10

Known value: Escherichia coli zone of inhibition at 25 µg/mL of the compound "O=C1c2ccccc2-c2noc(-c3ccc([N+](=O)[O-])cc3)c21" equals 5.5

Known value: Escherichia coli zone of inhibition at 25 µg/mL of the compound "COc1ccc(-c2onc3c2C(=O)c2ccccc2-3)cc1OC" equals 7.25

Known value: Escherichia coli zone of inhibition at 25 µg/mL of the compound CC1(C)S[C@@H]2[C@H](NC(=O)[C@H](N)c3ccccc3)C(=O)N2[C@H]1C(=O)O [AMPICILLIN] equals 11.2

Known value: Escherichia coli zone of inhibition at 25 µg/mL of the compound "O=C1c2ccccc2-c2noc(-c3ccc(O)cc3)c21" equals 4.75

Known value: Escherichia coli zone of inhibition at 25 µg/mL of the compound "COc1cccc(-c2onc3c2C(=O)c2ccccc2-3)c1O" equals 10.2

Known value: Escherichia coli zone of inhibition at 25 µg/mL of the compound "O=C1c2ccccc2-c2noc(-c3ccc(Cl)cc3)c21" equals 6

Known value: Escherichia coli zone of inhibition at 25 µg/mL of the compound "O=C1c2ccccc2-c2noc(-c3ccccc3[N+](=O)[O-])c21" equals 5.25

###

// reported zone of inhibition at 50 µg/mL per item
System: Escherichia coli
Assay: Antimicrobial activity against at Escherichia coli at 50 ug/ml by cup-plate method
Assay type: functional
Details: read-out: IZ
The reply should be a number in mm, with the unit left off.

COc1cccc(-c2onc3c2C(=O)c2ccccc2-3)c1O 14.7

Short answer for "O=C1c2ccccc2-c2noc(-c3cccc([N+](=O)[O-])c3)c21" : zone of inhibition at 50 µg/mL was 13.2

Short answer for "COc1ccc(-c2onc3c2C(=O)c2ccccc2-3)cc1OC" : zone of inhibition at 50 µg/mL was 11

###

// reported Activity per item
System: Rattus norvegicus
Test: Anti-inflammatory activity in Rattus norvegicus Wistar albino (rat) assessed as protection against carrageenan-induced paw edema at 50 mg/kg after 30 min
Format: functional
The reply should be a number in %, with the unit left off.

Would you please look over these solved cases?
COMPOUND	DISPLAY UNIT	Activity
COc1ccc2c(c1)c(CC(=O)O)c(C)n2C(=O)c1ccc(Cl)cc1 [INDOMETHACIN]	%	28.56
COc1ccc(-c2onc3c2C(=O)c2ccccc2-3)cc1	%	7.71
COc1cc(-c2onc3c2C(=O)c2ccccc2-3)cc(OC)c1OC	%	17.21
COc1ccc(-c2onc3c2C(=O)c2ccccc2-3)cc1OC	%	6.21
O=C1c2ccccc2-c2noc(-c3ccc(Cl)cc3)c21	%	6.31

In the following, a different compound is considered.
Known value: Rattus norvegicus Activity of the compound "O=C1c2ccccc2-c2noc(-c3ccc([N+](=O)[O-])cc3)c21" equals 10.92

###

Test system: Rattus norvegicus
Assay: Anti-inflammatory activity in Rattus norvegicus Wistar albino (rat) assessed as protection against carrageenan-induced paw edema at 50 mg/kg after 60 min
Format: functional
Please assign N whenever Activity is at or above 20%, and Y whenever it is below.

O=C1c2ccccc2-c2noc(-c3ccc([N+](=O)[O-])cc3)c21 Y
COc1cccc(-c2onc3c2C(=O)c2ccccc2-3)c1O N
O=C1c2ccccc2-c2noc(-c3ccccc3[N+](=O)[O-])c21 Y
O=C1c2ccccc2-c2noc(-c3ccccc3)c21 N
COc1ccc(-c2onc3c2C(=O)c2ccccc2-3)cc1 Y

Q: Please state whether Activity is below 20% for "CN(C)c1ccc(-c2onc3c2C(=O)c2ccccc2-3)cc1"
A: Y

Q: Please state whether Activity is below 20% for "O=C1c2ccccc2-c2noc(-c3ccc(Cl)cc3)c21"
A: Y

Q: Please state whether Activity is below 20% for "COc1ccc2c(c1)c(CC(=O)O)c(C)n2C(=O)c1ccc(Cl)cc1"
A: N

Q: Please state whether Activity is below 20% for "COc1ccc(-c2onc3c2C(=O)c2ccccc2-3)cc1OC"
A: Y

Q: Please state whether Activity is below 20% for "O=C1c2ccccc2-c2noc(-c3cccc([N+](=O)[O-])c3)c21"
A: Y

Q: Please state whether Activity is below 20% for "Cc1ccc(-c2onc3c2C(=O)c2ccccc2-3)cc1"
A: N

Q: Please state whether Activity is below 20% for "O=C1c2ccccc2-c2noc(-c3ccc(O)cc3)c21"
A: N

Q: Please state whether Activity is below 20% for "COc1cc(-c2onc3c2C(=O)c2ccccc2-3)cc(OC)c1OC"
A: N
